Measured target/OTLA specificity by item
- system_name: T1, biotinylated pHLA: HLA subtype A*02:01 complexed with … (HLA-PEPTIDE target G8) (human)
- T1 construct: Soluble biotinylated pHLA coupled to U-PLEX linker 1 in the MSD assay; also called pHLA target
- test: MSD specificity ratio; threshold for selection of the 12 hit clones of Table 14

Which target/OTLA specificity value is on record for 09D06 scFv (scFv, V domains shown, As m4: periplasmic-extract scFv) VH: EVQLLESGGGLVQPGGSLRLSCAASGFTFSDYYMSWVRQAPGKGLEWVSGINWPGSSTGYADSVKGRFTISRDNSKNTLYLQMNSLRAEDTAVYYCARVRQGYDYYYYYYMDVWGKGTTVTVSS VL: DIQMTQSPSSLSASVGDRVTITCRASQSISSYLNWYQQKPGKAPKLLIYKASSLESGVPSRFSGSGSGTDFTLTISSLQPEDFATYYCQQSYSAPYTFGPGTKVDIK ?
> 50 ratio

Which target/OTLA specificity value is on record for 05G09 scFv (scFv, V domains shown, As m4; also called 0509) VH: EVQLLESGGGLVQPGGSLRLSCAASGFTFSDYYMSWVRQAPGKGLEWVGGINWPGGSTDYADSVKGRFTISRDNSKNTLYLQMNSLRAEDTAVYYCARVEQGYDIYYYYYMDVWGKGTTVTVSS VL: DIQMTQSPSSLSASVGDRVTITCRASQSISSYLNWYQQKPGKAPKLLIYKASSLESGVPSRFSGSGSGTDFTLTISSLQPEDFATYYCQQSYSAPYTFGPGTKVDIK ?
> 50 ratio

Which target/OTLA specificity value is on record for 05A08 scFv (scFv, V domains shown, As m4: periplasmic-extract scFv) VH: EVQLLESGGGLVQPGGSLRLSCAASGYTFSDYYMSWVRQAPGKGLEWVGNINWNGGSTLYADSVKGRFTISRDNSKNTLYLQMNSLRAEDTAVYYCARVEQGYDNYYYYYMDVWGKGTTVTVSS VL: DIQMTQSPSSLSASVGDRVTITCRASQSISSYLNWYQQKPGKAPKLLIYKASSLESGVPSRFSGSGSGTDFTLTISSLQPEDFATYYCQQSYSAPYTFGPGTKVDIK ?
> 50 ratio
